Each recorded value in this set is attributed to patent US9056851B2.

test system: B. thialandensis Bt38
Mark each entry yes (1) if its MIC sits below 200 µg/mL, and no (0) for all others.

C=C/C(C)=C/[C@@]1(C)SC(=O)C(CCCCc2ccc(F)cc2)=C1O : no (0)
C=C/C(C)=C/[C@@]1(C)SC(=O)C(CCCCc2ccc(Br)cc2)=C1O : yes (1)
C=C/C(C)=C/[C@@]1(C)SC(=O)C(CCCCc2ccc(Cl)cc2)=C1O : yes (1)
C=C/C(C)=C/[C@@]1(C)SC(=O)C(CCc2ccc(Cl)cc2)=C1O : no (0)
C=C/C(C)=C/[C@@]1(C)SC(=O)C=C1O [TLM2, 5R-(+)-3-Demethylthiolactomycin] : yes (1)
C=C/C(C)=C/[C@@]1(C)SC(=O)C(CCCCn2cc(CNC(=O)c3ccc(NS(=O)(=O)c4ccc(F)cc4)cc3)nn2)=C1O : no (0)
C=C/C(C)=C/[C@@]1(C)SC(=O)C(CCCCc2ccc(-c3ccccc3)cc2)=C1O : yes (1)
C=C/C(C)=C/[C@@]1(C)SC(=O)C(CCC)=C1O [TLM4, 5R-(+)-3-Propylthiolactomycin] : no (0)
C=C/C(C)=C/[C@@]1(C)SC(=O)C(CCCCN=[N+]=[N-])=C1O : no (0)
C=C/C(C)=C/[C@@]1(C)SC(=O)C(CCCCn2cc(CNC(=O)[C@H](O)C(C)(C)CO)nn2)=C1O : no (0)

is_below(MIC, 200 µg/mL) for C=C/C(C)=C/[C@@]1(C)SC(=O)C(CC)=C1O [TLM3, 5R-(+)-3-Ethylthiolactomycin] ?
yes (1)

is_below(MIC, 200 µg/mL) for `C=C/C(C)=C/[C@@]1(C)SC(=O)C(CCCN=[N+]=[N-])=C1O` ?
no (0)

is_below(MIC, 200 µg/mL) for `C=C/C(C)=C/[C@@]1(C)SC(=O)C(CCc2ccc(C)cc2)=C1O` ?
no (0)

====

biological target: wild-type apo-KasA (Mycobacterium tuberculosis, UniProt P9WQD9)
Sequence (P9WQD9 whole entry): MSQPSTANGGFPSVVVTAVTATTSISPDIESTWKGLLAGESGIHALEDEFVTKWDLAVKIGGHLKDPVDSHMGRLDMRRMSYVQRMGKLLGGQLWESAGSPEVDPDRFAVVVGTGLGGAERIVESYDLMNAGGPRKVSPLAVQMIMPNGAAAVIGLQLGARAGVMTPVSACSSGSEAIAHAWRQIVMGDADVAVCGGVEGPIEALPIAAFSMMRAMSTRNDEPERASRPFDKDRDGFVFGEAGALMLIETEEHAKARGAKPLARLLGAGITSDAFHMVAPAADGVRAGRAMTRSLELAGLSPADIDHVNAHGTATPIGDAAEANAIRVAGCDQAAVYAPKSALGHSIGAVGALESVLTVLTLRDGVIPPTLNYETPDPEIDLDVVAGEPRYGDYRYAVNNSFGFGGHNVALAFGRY
measurement-label: Ki

Given `C=C/C(C)=C/[C@@]1(C)SC(=O)C(CCCN=[N+]=[N-])=C1O` , respond with its Ki.
233 µM

====

target: wild-type apo-KasA (Mycobacterium tuberculosis, UniProt P9WQD9); test: biochemical; assay type: binding; details: Kd (μM) apo-KasA, Table 1; wild-type apo-KasA, fluorescence spectroscopy
measurement-label: Kd (µM)
Answers are plain numbers, in µM.

Supply Kd measured with wild-type apo-KasA (Mycobacterium tuberculosis, UniProt P9WQD9) for C=C/C(C)=C/[C@@]1(C)SC(=O)C(CCCN=[N+]=[N-])=C1O [TLM10] .
233

====

tested on: S. aureus BAA1762; assay: MIC against S. aureus BAA1762 (MRSA); assay type: cell-based; details: Staphylococcus aureus; MIC90; read-out: MIC (μg/ml) Staph. aureus BAA1762 MRSA
measurement-label: MIC (µg/mL)
One number for each entry, in µg/mL.

Solved entries:
C=C/C(C)=C/[C@@]1(C)SC(=O)C(C(=O)C(F)(F)F)=C1O : 64
C=C/C(C)=C/[C@@]1(C)SC(=O)C(C(=O)c2ccccc2C(=O)O)=C1O : 32
C=C/C(C)=C/[C@@]1(C)SC(=O)C(CC)=C1O [TLM3, 5R-(+)-3-Ethylthiolactomycin] : 125
C=C/C(C)=C/[C@@]1(C)SC(=O)C(C(C)=O)=C1O : 32
C=C/C(C)=C/[C@@]1(C)SC(=O)C=C1O [TLM2, 5R-(+)-3-Demethylthiolactomycin] : 100

Okay, here is my list. What is MIC for each of these?
1. C=C/C(C)=C/[C@@]1(C)SC(=O)C(CCCCc2ccc(Br)cc2)=C1O
2. C=C/C(C)=C/[C@@]1(C)SC(=O)C(CCCCc2ccc(F)cc2)=C1O
3. C=C/C(C)=C/[C@@]1(C)SC(=O)C(CCc2ccc(Cl)cc2)=C1O
4. C=C/C(C)=C/[C@@]1(C)SC(=O)C(C(=O)CCCCc2ccc(-c3ccccc3)cc2)=C1O

1. 50
2. 75
3. 100
4. 2

Okay, here is my list. What is MIC for each of these?
1. C=C/C(C)=C/[C@@]1(C)SC(=O)C(C(=O)CCCCN=[N+]=[N-])=C1O
2. C=C/C(C)=C/[C@@]1(C)SC(=O)C(C(=O)CCC)=C1O
3. C=C/C(C)=C/[C@@]1(C)SC(=O)C(CCCCc2ccc(-c3ccccc3)cc2)=C1O

1. 16
2. 32
3. 25

Okay, here is my list. What is MIC for each of these?
1. C=C/C(C)=C/[C@@]1(C)SC(=O)C(CCCCc2ccc(Cl)cc2)=C1O
2. C=C/C(C)=C/[C@@]1(C)SC(=O)C(C(=O)CCCCCCCCCCCCCCC)=C1O

50
1

====

I'd appreciate it if you could supply MIC values for the items below.
system: S. aureus BAA1762; test: MIC against S. aureus BAA1762 (MRSA); format: cell-based; settings: Staphylococcus aureus; MIC90; read-out: MIC (μg/ml) Staph. aureus BAA1762 MRSA

Okay, here is my list. What is MIC for each of these?
1. C=C/C(C)=C/[C@@]1(C)SC(=O)C=C1OCC(=O)NCCn1cc(CNC(=O)[C@H](O)C(C)(C)CO)nn1
2. C=C/C(C)=C/[C@@]1(C)SC(=O)C(C(=O)OC)=C1O
3. C=C/C(C)=C/[C@@]1(C)SC(=O)C(CCCCN=[N+]=[N-])=C1O
4. C=C/C(C)=C/[C@@]1(C)SC(=O)C(CCc2ccc(C)cc2)=C1O

1. > 64 µg/mL
2. > 64 µg/mL
3. > 100 µg/mL
4. > 100 µg/mL

Okay, here is my list. What is MIC for each of these?
1. C=C/C(C)=C/[C@@]1(C)SC(=O)C(CCCCn2cc(CNC(=O)[C@H](O)C(C)(C)CO)nn2)=C1O
2. C=C/C(C)=C/[C@@]1(C)SC(=O)C(CCCN=[N+]=[N-])=C1O

> 100 µg/mL
> 100 µg/mL

Okay, here is my list. What is MIC for each of these?
1. C=C/C(C)=C/[C@@]1(C)SC(=O)C=C1OCC(=O)NCCn1cc(CNC(=O)c2ccc(NS(=O)(=O)c3ccc(F)cc3)cc2)nn1
2. C=C/C(C)=C/[C@@]1(C)SC(=O)C(CCCCn2cc(CNC(=O)c3ccc(NS(=O)(=O)c4ccc(F)cc4)cc3)nn2)=C1O
3. C=C/C(C)=C/[C@@]1(C)SC(=O)C=C1OCC(=O)NCCNC(=O)OC(C)(C)C
4. C=C/C(C)=C/[C@@]1(C)SC(=O)C(CCC)=C1O [TLM4, 5R-(+)-3-Propylthiolactomycin]
5. C=C/C(C)=C/[C@@]1(C)SC(=O)C=C1OCC(=O)NCCN=[N+]=[N-]

1: > 64 µg/mL; 2: > 100 µg/mL; 3: > 64 µg/mL; 4: > 200 µg/mL; 5: > 64 µg/mL
